system: Plasmodium falciparum; test: Antimalarial activity against CQ-resistant, MFQ-susceptible Plasmodium falciparum W2 clone Indochina 1 isolate assessed as inhibition of parasite proliferation by MSF assay; assay type: functional, organism-based
reported property: pIC50
The value called pIC50 is obtained by taking minus log10 of the concentration in mol/L.

// pIC50 (Plasmodium falciparum) for CC(=O)N[C@@H]1CC[C@@]2(C)[C@@H](C1)C[C@@H](OC(C)=O)[C@@H]1[C@@H]2C[C@H](OC(C)=O)[C@]2(C)[C@@H]([C@H](C)CCCNCCCNc3ccnc4cc(Cl)ccc34)CC[C@@H]12 = 7.58

// pIC50 (Plasmodium falciparum) for CC(=O)O[C@@H]1CC[C@@]2(C)[C@@H](C1)C[C@@H](OC(C)=O)[C@@H]1[C@@H]2C[C@H](OC(C)=O)[C@]2(C)[C@@H]([C@H](C)CCCNCCCCCCNc3ccnc4cc(Cl)ccc34)CC[C@@H]12 = 7.25

// pIC50 (Plasmodium falciparum) for CC(=O)O[C@H]1C[C@H]2[C@@H]([C@H](OC(C)=O)C[C@@H]3CC(NCCCNc4ccnc5cc(Cl)ccc45)CC[C@@]32C)[C@@H]2CC[C@H]([C@H](C)CCCNCCCNc3ccnc4cc(Cl)ccc34)[C@@]12C (mixture of isomers) = 6.97

// pIC50 (Plasmodium falciparum) for CC(=O)O[C@H]1C[C@H]2[C@@H]([C@H](OC(C)=O)C[C@@H]3C[C@H](N)CC[C@@]32C)[C@@H]2CC[C@H]([C@H](C)CCCN(CCC[C@@H](C)[C@H]3CC[C@H]4[C@@H]5[C@H](OC(C)=O)C[C@@H]6C[C@H](N)CC[C@]6(C)[C@H]5C[C@H](OC(C)=O)[C@]34C)CCNc3ccnc4cc(Cl)ccc34)[C@@]12C = 7.11

// pIC50 (Plasmodium falciparum) for CC(=O)O[C@H]1C[C@H]2[C@@H]([C@H](OC(C)=O)C[C@@H]3C[C@H](O)CC[C@@]32C)[C@@H]2CC[C@H]([C@H](C)CCCNCCCCNc3ccnc4cc(Cl)ccc34)[C@@]12C = 7.47

// pIC50 (Plasmodium falciparum) for CC(=O)O[C@H]1C[C@H]2[C@@H]([C@H](OC(C)=O)C[C@@H]3C[C@H](N)CC[C@@]32C)[C@@H]2CC[C@H]([C@H](C)CCCN(C)CCCNc3ccnc4cc(Cl)ccc34)[C@@]12C = 6.96

---

assay: Selectivity index, ratio of IC50 for human HepG2 cells to IC50 for CQ-resistant, MFQ-susceptible Plasmodium falciparum W2 clone Indochina 1 isolate; format: toxicity, cell-based; details: read-out: Ratio IC50
reported property: selectivity ratio
Please give only the number in your answer, with no unit.

selectivity ratio for CC(=O)O[C@H]1C[C@H]2[C@@H]([C@H](OC(C)=O)C[C@@H]3C[C@H](O)CC[C@@]32C)[C@@H]2CC[C@H]([C@H](C)CCCNCCCCCCNc3ccnc4cc(Cl)ccc34)[C@@]12C is 60

selectivity ratio for CC(=O)N[C@@H]1CC[C@@]2(C)[C@@H](C1)C[C@@H](OC(C)=O)[C@@H]1[C@@H]2C[C@H](OC(C)=O)[C@]2(C)[C@@H]([C@H](C)CCCNCCCNc3ccnc4cc(Cl)ccc34)CC[C@@H]12 is 55

selectivity ratio for CC(=O)O[C@H]1C[C@H]2[C@@H]([C@H](OC(C)=O)C[C@@H]3C[C@H](NC(=O)OC(C)(C)C)CC[C@@]32C)[C@@H]2CC[C@H]([C@H](C)CCCN(CCCNc3ccnc4cc(Cl)ccc34)CCC[C@@H](C)[C@H]3CC[C@H]4[C@@H]5[C@H](OC(C)=O)C[C@@H]6C[C@H](NC(=O)OC(C)(C)C)CC[C@]6(C)[C@H]5C[C@H](OC(C)=O)[C@]34C)[C@@]12C is 96

selectivity ratio for CC(=O)O[C@H]1C[C@H]2[C@@H]([C@H](OC(C)=O)C[C@@H]3CC(=O)CC[C@@]32C)[C@@H]2CC[C@H]([C@H](C)CCCNCCCCNc3ccnc4cc(Cl)ccc34)[C@@]12C is 7

selectivity ratio for CC(=O)O[C@H]1C[C@H]2[C@@H]([C@H](OC(C)=O)C[C@@H]3CC(=O)CC[C@@]32C)[C@@H]2CC[C@H]([C@H](C)CCCNCCNc3ccnc4cc(Cl)ccc34)[C@@]12C is 299

selectivity ratio for CC(=O)O[C@H]1C[C@H]2[C@@H]([C@H](OC(C)=O)C[C@@H]3C[C@H](N)CC[C@@]32C)[C@@H]2CC[C@H]([C@H](C)CCCN(C)CCNc3ccnc4cc(Cl)ccc34)[C@@]12C is 4990

selectivity ratio for CC(=O)O[C@H]1C[C@H]2[C@@H]([C@H](OC(C)=O)C[C@@H]3C[C@H](N)CC[C@@]32C)[C@@H]2CC[C@H]([C@H](C)CCCN(C)CCCNc3ccnc4cc(Cl)ccc34)[C@@]12C is 45

selectivity ratio for CC(=O)O[C@H]1C[C@H]2[C@@H]([C@H](OC(C)=O)C[C@@H]3C[C@H](NS(C)(=O)=O)CC[C@@]32C)[C@@H]2CC[C@H]([C@H](C)CCCNCCNc3ccnc4cc(Cl)ccc34)[C@@]12C is 131

selectivity ratio for CC(=O)O[C@H]1C[C@H]2[C@@H]([C@H](OC(C)=O)C[C@@H]3CC(=O)CC[C@@]32C)[C@@H]2CC[C@H]([C@H](C)CCCNCCCCCCNc3ccnc4cc(Cl)ccc34)[C@@]12C is 30
